- TEST_TARGET: T1, EsCas13d, nuclease-dead (Eubacterium siraeum, UniProt B0MS50, R295A;H300A;R849A;H854A)
- T1 sequence: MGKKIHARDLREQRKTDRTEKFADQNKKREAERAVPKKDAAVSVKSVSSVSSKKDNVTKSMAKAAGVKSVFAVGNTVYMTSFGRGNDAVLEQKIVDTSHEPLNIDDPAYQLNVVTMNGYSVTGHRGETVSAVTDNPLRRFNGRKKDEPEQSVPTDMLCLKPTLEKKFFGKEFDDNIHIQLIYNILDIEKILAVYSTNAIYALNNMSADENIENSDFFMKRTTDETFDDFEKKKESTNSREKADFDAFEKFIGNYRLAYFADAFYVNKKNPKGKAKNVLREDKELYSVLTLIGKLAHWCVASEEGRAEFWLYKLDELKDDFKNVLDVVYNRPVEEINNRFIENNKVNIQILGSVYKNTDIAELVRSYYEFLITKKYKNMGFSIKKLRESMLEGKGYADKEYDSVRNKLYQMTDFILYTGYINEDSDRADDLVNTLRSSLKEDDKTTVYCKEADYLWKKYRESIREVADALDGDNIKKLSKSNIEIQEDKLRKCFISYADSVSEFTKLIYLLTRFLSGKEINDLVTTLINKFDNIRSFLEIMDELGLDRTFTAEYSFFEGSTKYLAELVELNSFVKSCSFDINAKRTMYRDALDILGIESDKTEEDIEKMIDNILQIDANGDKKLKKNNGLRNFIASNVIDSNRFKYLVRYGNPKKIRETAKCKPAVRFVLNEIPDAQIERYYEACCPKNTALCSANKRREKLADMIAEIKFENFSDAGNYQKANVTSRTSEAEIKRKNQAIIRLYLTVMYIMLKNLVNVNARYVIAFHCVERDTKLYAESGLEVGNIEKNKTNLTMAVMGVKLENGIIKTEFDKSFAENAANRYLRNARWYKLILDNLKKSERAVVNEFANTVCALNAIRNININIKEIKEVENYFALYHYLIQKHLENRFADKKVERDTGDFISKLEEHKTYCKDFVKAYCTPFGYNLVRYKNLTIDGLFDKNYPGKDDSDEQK
- EXPERIMENT: crRNA (strand 1, pre-loaded); Mg2+; 40 mM Tris-HCl pH 7.5, 150 mM NaCl, 6 mM MgCl2, 1 mM DTT, 0.1% Tween-20, 0.2 mg/ml BSA; 25 C; 10 min per concentration, then washed
- DETAILS: tags: His6-TwinStrep-SUMO cleaved; N-terminal SNAP kept (SNAP-Surface 488); label: 3' end held by stalled T7 RNA polymerase
PARAMETER: Kd
In your response, the unit should come after the numeric value.

INSERT INTO assay_data (binder, meas_value) VALUES
  ('target 1 MT 5''PFS GCC 3''PFS CGA (mixed) RNA 1: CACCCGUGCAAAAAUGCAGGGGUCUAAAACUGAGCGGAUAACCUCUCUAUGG RNA 2: GGGAAUGGAUCCACAUCUACGAAUUCGCCCCAUAGAGAGGUUAUCCGCUCACGAAGAUCGGAAGAGCACACGU', '18.5 nM');

Consider now this further binder.
q: Answer with the recorded Kd of target 3 insA 3' of 22,insU 3' of 11 (mixed) RNA 1: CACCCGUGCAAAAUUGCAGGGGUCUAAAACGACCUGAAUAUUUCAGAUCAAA RNA 2: GGGAAUGGAUCCACAUCUACGAAUUCGUUUAUUGAUCUGAAAUUAUUCAGGUCUGCAGAUCGGAAGAGCACACGU only.
a: 72.5 nM
